Ref: PubChem BioAssay (EPA / NIEHS)

Experiment: Tanguay_ZF_120hpf_PIG_legacy: (Legacy) Oregon State University Tanguay Lab 120 Hour Post-fertilization zebrafish Assay for Pigmentation Malformation (AID 2283650);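 further: dechorionated Tropical 5D zebrafish embryos exposed singly from 6 to 120 hpf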
Description: Tanguay_ZF_120hpf_legacy is a whole embryo, multiplexed endpoint assay using zebrafish larvae exposed for 120 hours post fertilization on a 96-well plate.Tanguay_ZF_120hpf_PIG_legacy is one of one assay component(s) measured or calculated from the Tanguay_ZF_120hpf_legacy assay. […] This assay endpoint, Tanguay_ZF_120hpf_PIG_legacy, was analyzed in the positive analysis fitting direction relative to DMSO as the negative control and baseline of activity. […]
Results filed as inconclusive are left out. The source made the active and inactive calls. How the source made its calls: active means hit-call score of the fitted dose curve at least 0.9, where 1 is the maximum; inconclusive means response in the unintended direction; inactive means score below 0.9.
property_label: outcome

INSERT INTO results (mol_smiles, result) VALUES
  ('OCCN(CCO)CCO', 'inactive'),
  ('CN(C)C(=S)S', 'inactive'),
  ('Clc1cccc(Cl)c1Cl', 'inactive'),
  ('CC(C)(C)c1ccccc1O', 'inactive'),
  ('Oc1cc(Cl)c(Cl)cc1Cl', 'inactive'),
  ('CC(C)O.CC(C)O.OCCN(CCO)CCO.OCCN(CCO)CCO.[Ti]', 'inactive');

// next item, outcome requested
What does the record list as outcome for Oc1c(Cl)cc(Cl)cc1Cl ?
inactive
